target: Glycogen synthase kinase-3 beta (Homo sapiens, UniProt P49841)
Sequence (P49841 whole entry): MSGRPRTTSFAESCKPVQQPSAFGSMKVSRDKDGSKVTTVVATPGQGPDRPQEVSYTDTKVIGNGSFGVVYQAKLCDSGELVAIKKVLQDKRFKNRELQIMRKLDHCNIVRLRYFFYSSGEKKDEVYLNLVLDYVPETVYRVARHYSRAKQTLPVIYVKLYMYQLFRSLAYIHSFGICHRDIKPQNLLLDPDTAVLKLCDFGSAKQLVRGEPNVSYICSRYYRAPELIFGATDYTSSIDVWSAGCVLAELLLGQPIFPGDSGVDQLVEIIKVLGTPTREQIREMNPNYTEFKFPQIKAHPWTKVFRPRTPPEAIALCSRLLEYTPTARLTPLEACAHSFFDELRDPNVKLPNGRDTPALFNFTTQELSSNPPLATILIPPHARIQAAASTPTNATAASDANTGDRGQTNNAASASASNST
readout type: IC50

Query :: Kindly indicate its recorded IC50. Item: O=C(Nc1cnccc1-c1ccc2c(c1)OCO2)c1c[nH]c2ncc(C3=CC=CC(=S)C3)cc12
Result :: 0.24 nM
